Hello, the source for this data is the nanobody polyreactivity screen of Harvey et al. (2022), in case you need it.

# PROTOCOL_NOTES: yeast display, Sf9 membrane polyspecificity reagent, FACS + sequencing; frameworks hold sequencing errors
ENDPOINT: polyreactivity (PSR sort gate)

QVQLVESGGGLVQAGGSLRLSCAASGLISESYAMGWYRQAPGKERELVAAISSGGSTYYADSVKGRFTISRDNAKNTVYLQMNSLKPEDTAVYYCNATGYKYNYGHAYYYAVDYWGQGTQVTVSS
low polyreactivity
QVQLVESGGGLVQAGGSLRLSCAASGYTFRSYTMGWYRQAPGKERELVAAITSRGTSTYYADSVKGRFTISRDNAKNTVYLQMNSLKPEDTAVYYCAAPIYNGYASWQVYYWGQGTQVTVSS
high polyreactivity
QVQLVESGGGLVQAGGSLRLSCAASGFTFTRNVMGWYRQAPGKERELVAAINASGGRTYYADSVKGRFTISRDNAKNTVYLQMNSLKPEDTAVYYCAARDTQLGGSRGGSWGQGTQVTVSS
high polyreactivity
QVQLVESGGGIVQAGGSLRLSCAASGSTSGSYGMGWYRQAPGKERELVAAIRWSGGRTYYADSVKGRFTISRDKAKNTVYLQMNSLKPEDTAVYFCAKFRYTVSGYNYWGQRTQVTVSS
high polyreactivity
QVQLVESGGGLVQAGGSLRLSCAASGLTFGYYAMGWYRPAPGKEREFVAAISKSGGGTYYADSVKGRFTISRDNAKNTVYLQMNSLKPEDTAVYYCAARWFVGYNYWGQGTQVTVSS
high polyreactivity

[Q] # query: polyreactivity (PSR sort gate) of entry QVQLVESGGGLVQAGGSLRLSCAASGSIFVKYAMGWYRQAPGKERELVAAISRSGGSTYYADSVKGRFTISRDNAKNTVYLQMNSLKPEDTAVYYCAASNYKGMNYWGQGTQVTVSS
[A] high polyreactivity

[Q] For the sequence shown here, QVQLVESGGGLVQAGGSLPLSCAASGSTFGSYAMGWYRQAPGKERELVAAISYSGGSTYYADSVKGRFTISRDNEKNTVFLQMNSLKPEDTAVYYCATVRKYRAMDYWGQGTQVSVSS , give the reported polyreactivity (PSR sort gate).
[A] high polyreactivity

[Q] Entry QVQLVESGGGLVQAGGSLRLSCAASGRTFRIYAMGWYRQAPGKEREFVAAITWSGGRTYYADSVKGRFTISRDNAKNTVYLQMNSLKPEDTAVYYCAADPTYLRTLRFGSYDYWGQGNQVTVSS has what polyreactivity (PSR sort gate)?
[A] high polyreactivity

[Q] Find the recorded polyreactivity (PSR sort gate) belonging to QVQLEESGGGLVQAGGRLRLSCAASGITFGSYAMGWYRQAPGKERELVAAITRSDITNYADSVKGRFTISRDNAKNSVYLQMNRLNREDTAVYYCNKTPDRHRRYFGYGYWGHGTQVTVSS and report it.
[A] low polyreactivity

[Q] Name the reported polyreactivity (PSR sort gate) value associated with the sequence QVQLVESGGGLVQAGGSLRLSCAASGRTFYLYAMVCYRQAPGKERELVAAITNRGGSTYYADSVKGRFTISRDNAKNTVYLQMNSLKPEDTAVYYCAAQVSVYRGGYGYWGQGTQVTVSS
[A] high polyreactivity

[Q] Request the reported polyreactivity (PSR sort gate) associated with QVQLVESGGGLVQAGGSLRLSCAASGRTFTHYAMGWYRQAPGKERELVAAISGRGGNTYYADSVKGRFTISRDNAKNTVYLQMNSLKPEDTAVYYCNTAYVAKGYGYWGQGTQVTVSS
[A] high polyreactivity
